The reported numbers originate from patent US12215093B2.

Target: EP4 (Homo sapiens, UniProt P35408)
Sequence (P35408 whole entry): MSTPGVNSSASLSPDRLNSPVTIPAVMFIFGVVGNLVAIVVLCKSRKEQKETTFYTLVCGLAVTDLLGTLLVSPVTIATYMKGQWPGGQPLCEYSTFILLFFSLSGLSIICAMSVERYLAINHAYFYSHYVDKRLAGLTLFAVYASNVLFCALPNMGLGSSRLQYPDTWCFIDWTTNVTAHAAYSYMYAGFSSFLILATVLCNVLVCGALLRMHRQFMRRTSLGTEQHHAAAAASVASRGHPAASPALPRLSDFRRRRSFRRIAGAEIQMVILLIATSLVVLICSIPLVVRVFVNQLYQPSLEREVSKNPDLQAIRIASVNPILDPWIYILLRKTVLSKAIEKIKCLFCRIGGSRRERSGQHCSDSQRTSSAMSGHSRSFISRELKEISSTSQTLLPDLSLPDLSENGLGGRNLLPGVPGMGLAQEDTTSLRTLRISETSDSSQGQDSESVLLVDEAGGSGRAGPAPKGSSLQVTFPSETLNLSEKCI
Assay: Functional calcium flux assay, EP4
Settings: stably transfected HEK293 cells; PGE2 10 nM; read-out: EP4 Ca2+-flux assay IC50
pIC50: −log10 of the molar value.
PROPERTY_LABEL: pIC50

Field: example entries. Status: answers known.
[
  {
    "COMPOUND": "[2H]C([2H])([2H])C([2H])(c1ccc(-c2ccccc2)cc1)n1ncc2c(Cl)ccc(C(=O)NC3CC4(C3)CC(C(=O)O)C4)c21 (racemic) [Example 166]",
    "STUDY_SYSTEM": "EP4 (Homo sapiens, UniProt P35408)",
    "MEAS_VALUE": 8.41
  },
  {
    "COMPOUND": "O=C(NC1CC2(C1)CC(C(=O)O)C2)c1ccc(Cl)c2cnn(C3(c4ccc(-c5ccccc5)cc4)COC3)c12 (stereo not drawn)",
    "STUDY_SYSTEM": "EP4 (Homo sapiens, UniProt P35408)",
    "MEAS_VALUE": 8.54
  },
  {
    "COMPOUND": "COc1cc(C(=O)NC2CC3(C2)CC(C(=O)O)C3)c2c(cnn2Cc2ccc(-c3ccccc3)cc2)c1 (stereo not drawn)",
    "STUDY_SYSTEM": "EP4 (Homo sapiens, UniProt P35408)",
    "MEAS_VALUE": "> 9.00"
  },
  {
    "COMPOUND": "O=C(O)CC1CC2(C1)CC(NC(=O)c1ccc(Cl)c3cnn(Cc4ccc(-c5ccccc5F)cc4)c13)C2 (stereo not drawn)",
    "STUDY_SYSTEM": "EP4 (Homo sapiens, UniProt P35408)",
    "MEAS_VALUE": "> 9.00"
  },
  {
    "COMPOUND": "O=C(NC1CC2(C1)CC(C(=O)O)C2)c1ccc(Cl)c2cnn(Cc3ccc(N4CC5CC5(C(F)F)C4)c(F)c3)c12 (racemic)",
    "STUDY_SYSTEM": "EP4 (Homo sapiens, UniProt P35408)",
    "MEAS_VALUE": "> 9.00"
  }
]

Field pIC50 (EP4 (Homo sapiens, UniProt P35408)), entry COc1ccc2cc(-c3ccc(Cn4ncc5cc(Cl)cc(C(=O)NC6CC7(CC(CC(=O)O)C7)C6)c54)cc3)ccc2n1 (stereo not drawn) : > 9.00
